Target: T1, CRBN, Q96SW2;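 note: pooled lentiviral library of zinc finger degron-EGFP fusions in mCherry-positive Jurkat cells, FACS-sorted after compound exposure, with degron abundance counted by next-generation sequencing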
T1 chain: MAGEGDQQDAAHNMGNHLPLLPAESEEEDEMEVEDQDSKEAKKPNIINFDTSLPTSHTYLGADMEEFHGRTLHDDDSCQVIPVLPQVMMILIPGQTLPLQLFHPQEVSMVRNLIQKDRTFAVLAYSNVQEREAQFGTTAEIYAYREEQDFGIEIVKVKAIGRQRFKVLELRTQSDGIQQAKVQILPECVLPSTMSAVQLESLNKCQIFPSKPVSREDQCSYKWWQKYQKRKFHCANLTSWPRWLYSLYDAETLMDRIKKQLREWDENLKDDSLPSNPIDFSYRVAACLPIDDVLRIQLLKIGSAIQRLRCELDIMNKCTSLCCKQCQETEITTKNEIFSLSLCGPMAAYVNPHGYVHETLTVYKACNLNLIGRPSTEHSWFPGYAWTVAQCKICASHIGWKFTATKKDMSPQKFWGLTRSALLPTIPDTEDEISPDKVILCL
Assay: log2 fold change of degron read counts, EGFP-low vs EGFP+ sorted cells (limma voom), compound-induced degradation; higher = more compound-induced degradation of the degron-EGFP fusion; degrons are variants of IKZF1/3 zinc finger 2; compound dose not given here
Conditions: Jurkat; 18 h; compound: thalidomide
The full ranking holds about 8,300 sequences; the median of “log2 fold change of degron read counts, EGFP-low vs EGFP+ sorted cells (limma voom), compound-induced degradation” is about -1.1, and the highest 2% start at about 3.2. For the sample, the highest values were picked, then their nearest neighbours and some sequences at random.
Consider the following sequences and their measured log2 fold change of degron read counts readings.
assay.metric: log2 fold change of degron read counts

FECPICGHEFTQKGNLLRHIKL [46F_47E_49P_50I_52G_53H_54E_55F_67L_, Q9UKT9]: -1.82
FYCNICGAPFTQKGNLLRHIKL [46F_47Y_49N_50I_52G_53A_54P_55F_67L_, Q9UKT9]: 1.04
FWCPICGHRFTQKGNLLRHIKL [46F_47W_49P_50I_52G_53H_54R_55F_67L_, Q9UKT9]: -0.478
FYCEICGREFTQKGNLLRHIKL [46F_47Y_49E_50I_52G_53R_54E_55F_67L_, Q9UKT9]: -1.93
FNCNICGAPFTQKGNLLRHIKL [46F_47N_49N_50I_52G_53A_54P_55F_67L_, Q9UKT9]: 0.97
FSCDQCGALFTQKGNLLRHIKL [46F_47S_49D_50Q_52G_53A_54L_55F_67L_, Q9UKT9]: -3.02
FICEICGAVFTQKGNLLRHIKL [46F_47I_49E_50I_52G_53A_54V_55F_67L_, Q9UKT9]: 2.12
